List of remaining activity at 30 µM values.
assay system: rat mGluR5 (Rattus norvegicus (Rat), UniProt P31424)
Sequence (P31424 21-1203): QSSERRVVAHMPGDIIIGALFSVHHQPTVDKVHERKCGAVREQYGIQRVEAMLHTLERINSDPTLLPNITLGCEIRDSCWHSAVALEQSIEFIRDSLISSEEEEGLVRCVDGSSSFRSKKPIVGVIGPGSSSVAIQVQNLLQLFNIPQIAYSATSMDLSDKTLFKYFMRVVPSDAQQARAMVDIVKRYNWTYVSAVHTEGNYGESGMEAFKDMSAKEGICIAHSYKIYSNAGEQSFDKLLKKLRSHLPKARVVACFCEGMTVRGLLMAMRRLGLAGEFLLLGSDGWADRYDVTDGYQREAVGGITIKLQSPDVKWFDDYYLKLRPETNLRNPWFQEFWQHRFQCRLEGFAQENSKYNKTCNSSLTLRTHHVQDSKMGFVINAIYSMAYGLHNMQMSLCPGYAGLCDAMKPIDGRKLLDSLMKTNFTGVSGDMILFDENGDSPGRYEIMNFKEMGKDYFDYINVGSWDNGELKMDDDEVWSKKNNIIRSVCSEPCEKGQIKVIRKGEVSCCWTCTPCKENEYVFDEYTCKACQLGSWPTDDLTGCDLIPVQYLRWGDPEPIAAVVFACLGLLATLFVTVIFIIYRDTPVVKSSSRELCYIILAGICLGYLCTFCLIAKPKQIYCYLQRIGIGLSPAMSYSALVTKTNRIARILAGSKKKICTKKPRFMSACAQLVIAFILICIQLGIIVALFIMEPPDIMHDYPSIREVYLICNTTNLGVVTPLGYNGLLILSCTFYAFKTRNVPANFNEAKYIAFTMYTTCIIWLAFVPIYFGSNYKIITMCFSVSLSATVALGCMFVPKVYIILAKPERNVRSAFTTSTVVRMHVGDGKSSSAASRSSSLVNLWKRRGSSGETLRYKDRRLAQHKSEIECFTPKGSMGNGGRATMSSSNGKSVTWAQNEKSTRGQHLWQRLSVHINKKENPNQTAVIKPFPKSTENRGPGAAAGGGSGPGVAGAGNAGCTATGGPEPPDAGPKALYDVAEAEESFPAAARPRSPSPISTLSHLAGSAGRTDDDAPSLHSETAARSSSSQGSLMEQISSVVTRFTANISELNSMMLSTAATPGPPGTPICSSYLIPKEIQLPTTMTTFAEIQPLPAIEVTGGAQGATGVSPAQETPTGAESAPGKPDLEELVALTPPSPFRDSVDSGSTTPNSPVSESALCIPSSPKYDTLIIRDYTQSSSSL
assay explanation: Calcium mobilization assay in HEK 293A cells stably expressing rat mGluR5
Format: cell-based
applied conditions: HEK293-A; amplitude of response in the presence of 30 μM test compound as a percentage of maximal response (100 μM glutamate); read-out: % Glu Max
Answer with a number only, understood to be in %.

Please review the entries below; each comes with its answer.
{"given smiles": "COc1cccc(NC(=O)c2cc(-c3cnccc3C)cn3ncnc23)n1", "assay system": "rat mGluR5 (Rattus norvegicus (Rat), UniProt P31424)", "recorded result": 31}
{"given smiles": "Cc1csc(NC(=O)c2cc(-c3ccc4c(ccn4C)c3)cn3ncnc23)n1", "assay system": "rat mGluR5 (Rattus norvegicus (Rat), UniProt P31424)", "recorded result": 27}
{"given smiles": "COc1cnc(-c2cc(C(=O)Nc3nc(C)cs3)c3ncnn3c2)cn1", "assay system": "rat mGluR5 (Rattus norvegicus (Rat), UniProt P31424)", "recorded result": 71}
{"given smiles": "Cc1csc(NC(=O)c2cc(-c3cc4ccccc4o3)cn3ncnc23)n1", "assay system": "rat mGluR5 (Rattus norvegicus (Rat), UniProt P31424)", "recorded result": 39}

For `Cc1cc(C)cc(-c2cc(C(=O)Nc3nc(C)cs3)c3ncnn3c2)c1` , write its remaining activity at 30 µM.
57

Quick one: give measured remaining activity at 30 µM for `Cc1ccncc1-c1cc(C(=O)Nc2ccc(F)cn2)c2ncnn2c1`
52

Indicate the recorded remaining activity at 30 µM value for this compound: `Cc1csc(NC(=O)c2cc(-c3cnn(C)c3)cn3ncnc23)n1`
30

Give reported remaining activity at 30 µM value for `Cc1csc(NC(=O)c2cc(-c3ccn(C)n3)cn3ncnc23)n1`
70

Using known records, supply remaining activity at 30 µM for `Cc1csc(NC(=O)c2cc(-c3ccc4c(cnn4C)c3)cn3ncnc23)n1`
53

Origin of measurements: patent US9550778B2
